This section presents substances with their documented IC50 values.
molecular target: GST-MAGI-3 PDZ 2 (aa. 584-707 of SEQ ID NO:200) (human) [GST: P08515]; assay: competition ELISA: peptide blocks GST-PDZ binding to immobilized peptide
Sequence (P08515 whole entry): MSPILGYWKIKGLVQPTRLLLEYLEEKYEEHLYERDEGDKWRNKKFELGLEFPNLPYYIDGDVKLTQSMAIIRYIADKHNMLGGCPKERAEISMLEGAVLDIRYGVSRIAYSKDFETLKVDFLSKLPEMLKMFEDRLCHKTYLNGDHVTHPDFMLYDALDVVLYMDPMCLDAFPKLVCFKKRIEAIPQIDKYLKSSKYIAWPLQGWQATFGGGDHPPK
property.label: IC50 (µM)

[[record]]
substance = "GCGCSWV (peptide)"
property_label = "IC50"
reported = 2

[[record]]
substance = "HTQITWV (peptide)"
property_label = "IC50"
reported = 0.3

[[record]]
substance = "HTQITKV (peptide)"
property_label = "IC50"
reported = 200


====

Target: Human Scribble (KIAA0147, NP_056171.1) PDZ2 (aa 788-913) (Homo sapiens, UniProt Q14160)
Construct: Human Scribble (KIAA0147, NP_056171.1) PDZ2 (aa 788-913); GST; made in house
Sequence (Q14160 788-913 isoform Q14160-2): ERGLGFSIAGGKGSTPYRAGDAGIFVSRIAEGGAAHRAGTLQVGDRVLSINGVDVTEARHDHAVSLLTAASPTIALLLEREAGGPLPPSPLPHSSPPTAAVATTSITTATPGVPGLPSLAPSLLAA
Assay: Carboxyl-terminal phage display binding selection
Conditions: number of phage-selected clones with this sequence, siblings counted as individuals
property.label: occurence

[[record]]
substance = "LTVRETWV [phage-selected peptide, Scribble PDZ2]"
reported = 4

[[record]]
substance = "ESVRGFDTWV [phage-selected peptide, Scribble PDZ2]"
reported = 1

[[record]]
substance = "STGKFFDTWV [phage-selected peptide, Scribble PDZ2]"
reported = 1

[[record]]
substance = "RKSRTFETWV [phage-selected peptide, Scribble PDZ2]"
reported = 1

[[record]]
substance = "AWFETWV [phage-selected peptide, Scribble PDZ2]"
reported = 2

[[record]]
substance = "RSRYRFTDV [phage-selected peptide, Scribble PDZ2]"
reported = 6

[[record]]
substance = "HRVRETWV [phage-selected peptide, Scribble PDZ2]"
reported = 21

